system name: Cyclin-dependent kinase 2 (Homo sapiens) (UniProt P24941)
measurement context: Compound concentration 20.0 uM
Description: Thermal Shift Assay. Domain: start/stop: M1-L298
measured metric: ΔTm (°C)
Form entry: value (°C) — number only.

Exercise: Name the reported ΔTm value associated with the compound "CC(C)n1nc(-c2cc3cc(O)ccc3[nH]2)c2c(N)ncnc21"
Solution: 2.02

Exercise: Name the reported ΔTm value associated with the compound COc1ccc(C(CN(C)C)C2(O)CCCCC2)cc1 (stereo not given)
Solution: -0.01

Exercise: Name the reported ΔTm value associated with the compound "COc1cn(-c2ccc(-n3cccn3)cc2F)nc(-c2ccnn2-c2ccccc2)c1=O"
Solution: 1.24

---

system name: Aurora kinase A (Homo sapiens) (UniProt O14965)
Sequence (whole entry): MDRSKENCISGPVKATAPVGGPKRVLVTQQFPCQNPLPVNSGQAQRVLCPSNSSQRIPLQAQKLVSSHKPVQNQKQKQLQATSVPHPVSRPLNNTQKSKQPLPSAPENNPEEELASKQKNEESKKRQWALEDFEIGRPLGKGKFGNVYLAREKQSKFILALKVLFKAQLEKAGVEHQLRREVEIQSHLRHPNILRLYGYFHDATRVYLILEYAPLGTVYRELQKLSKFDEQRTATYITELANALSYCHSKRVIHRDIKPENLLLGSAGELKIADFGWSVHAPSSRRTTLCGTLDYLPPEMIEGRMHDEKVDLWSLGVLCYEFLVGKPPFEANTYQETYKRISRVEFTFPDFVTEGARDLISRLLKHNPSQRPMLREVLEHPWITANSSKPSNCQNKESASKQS
measurement context: Compound concentration 20.0 uM
Description: Thermal Shift Assay. Domain: start/stop: E122-S403
Lab note: cut-off is -0.6 °C. Strictly less in ΔTm is condition met. Exactly -0.6 °C or more is condition not met.

Sample answers from the record:
{"columns": ["given smiles", "classification"],
 "data": [
  ["C/C(=N\\NC(=O)c1cccc(S(=O)(=O)N2CCOCC2)c1)c1cc(Cl)ccc1O", "condition not met"],
  ["C[C@]12O[C@H](C[C@]1(O)CO)n1c3ccccc3c3c4c(c5c6ccccc6n2c5c31)CNC4=O", "condition not met"],
  ["COc1cc(C)[nH]c(=O)c1CNC(=O)c1c(C)n([C@H](C)C2CCOCC2)c2ccccc12", "condition not met"],
  ["COc1cc(O)c2c(c1)/C=C\\C[C@H](O)[C@H](O)C(=O)/C=C\\C[C@H](C)OC2=O", "condition not met"],
  ["CS(=O)(=O)Nc1ccc(-c2coc3cc(OCc4cccc(C(=O)O)c4)ccc3c2=O)cc1", "condition not met"],
  ["CN(Cc1cccc(-c2ccncc2)c1)C(=O)Oc1ccc(-c2ccc(C(N)=O)cc2)cc1", "condition met"]
]}

Exercise: Is ΔTm strictly under -0.6 °C for the entry "O=C(NCCCCc1ccccc1)n1c(=O)oc2cc(-c3ccc(F)cc3)ccc21" ?
Solution: condition met

Exercise: Is ΔTm strictly under -0.6 °C for the entry "O=[N+]([O-])c1cc(O)c(O)c([N+](=O)[O-])c1" ?
Solution: condition not met

---

system name: Transcription intermediary factor 1-alpha (Homo sapiens) (UniProt O15164)
Sequence (O15164 whole entry): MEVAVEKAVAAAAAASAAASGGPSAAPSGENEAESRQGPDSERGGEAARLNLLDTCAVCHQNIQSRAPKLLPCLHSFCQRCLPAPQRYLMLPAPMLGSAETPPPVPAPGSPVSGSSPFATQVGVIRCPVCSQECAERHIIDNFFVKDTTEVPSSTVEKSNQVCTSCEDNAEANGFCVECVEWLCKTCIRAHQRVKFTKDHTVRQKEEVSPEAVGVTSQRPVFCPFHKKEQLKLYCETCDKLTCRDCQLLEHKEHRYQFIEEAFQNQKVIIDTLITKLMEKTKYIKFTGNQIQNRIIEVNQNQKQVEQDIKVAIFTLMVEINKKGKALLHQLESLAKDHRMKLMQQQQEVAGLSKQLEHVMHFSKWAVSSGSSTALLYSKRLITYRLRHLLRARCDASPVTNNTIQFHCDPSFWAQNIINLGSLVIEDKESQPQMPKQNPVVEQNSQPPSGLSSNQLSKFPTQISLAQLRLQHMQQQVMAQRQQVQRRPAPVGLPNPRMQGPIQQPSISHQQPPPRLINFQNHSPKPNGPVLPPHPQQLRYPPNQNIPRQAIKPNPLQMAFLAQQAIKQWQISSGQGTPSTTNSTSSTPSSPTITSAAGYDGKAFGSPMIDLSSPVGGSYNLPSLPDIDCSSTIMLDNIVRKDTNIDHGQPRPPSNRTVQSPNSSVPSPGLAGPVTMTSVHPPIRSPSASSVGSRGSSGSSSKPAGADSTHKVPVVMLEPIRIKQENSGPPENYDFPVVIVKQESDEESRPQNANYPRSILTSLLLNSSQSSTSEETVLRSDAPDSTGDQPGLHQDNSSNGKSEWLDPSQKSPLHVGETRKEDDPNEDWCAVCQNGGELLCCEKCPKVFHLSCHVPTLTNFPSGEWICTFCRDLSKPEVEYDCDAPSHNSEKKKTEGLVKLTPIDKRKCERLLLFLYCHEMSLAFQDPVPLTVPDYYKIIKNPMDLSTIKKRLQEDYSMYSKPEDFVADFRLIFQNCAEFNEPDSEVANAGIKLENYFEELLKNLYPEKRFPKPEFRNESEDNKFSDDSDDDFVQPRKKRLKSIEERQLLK
measurement context: Compound concentration 20.0 uM
Label scheme for ΔTm: bottom bin: < -0.2 °C; middle bin: ≥ -0.2 °C and < 0.2 °C; top bin: ≥ 0.2 °C

Sample answers from the record:
{"columns": ["compound", "classification"],
 "data": [
  ["CCCCCn1c(C)c(C(=O)c2cccc3ccccc23)c2ccccc21", "top bin"],
  ["O=C1C(P(=O)(O)O)CC(O)N1O (stereo unspecified)", "bottom bin"],
  ["C=CCO/N=C1\\c2ccccc2-c2nc(C#N)c(C#N)nc21", "top bin"],
  ["Fc1ccc(C(OCCN2CCN(CCCc3ccccc3)CC2)c2ccc(F)cc2)cc1", "bottom bin"],
  ["N[C@H]1CC[C@H](N[C@@H]2C[C@H]2c2ccccc2)CC1", "top bin"]
]}

Exercise: Band assignment needed for "CNC(=O)c1cc(C(=O)NC2CC2)cn(Cc2ccccc2)c1=O" please.
Solution: top bin

Exercise: Band assignment needed for "CN(C)NC(=O)CCC(=O)O" please.
Solution: bottom bin

Exercise: Band assignment needed for O=C1C(P(=O)(O)O)CCCN1O (stereo unspecified) please.
Solution: middle bin

---

system name: Aurora kinase A (Homo sapiens) (UniProt O14965)
measurement context: Compound concentration 20.0 uM
Documented ΔTm across a set of compounds
Form entry: value (°C) — number only.

Here is how some compounds turned out for ΔTm.
{"columns": ["compound", "u", "ΔTm"],
 "data": [
  ["O=C(N1CCCC[C@H]1Cc1ccccc1)n1cc(-c2ccc(-c3ccccc3)cc2)nn1", "°C", -1.72],
  ["Cc1sc2c(c1C)C(c1ccc(Cl)cc1)=N[C@@H](CC(=O)OC(C)(C)C)c1nnc(C)n1-2", "°C", -0.4],
  ["Nc1cc2c3c(c1)C(c1ccccc1)=N[C@@H](NC(=O)c1cccnc1)C(=O)N3CC2", "°C", -2.21],
  ["CC(=O)Nc1ccc(OC[C@](C)(O)C(=O)Nc2ccc([N+](=O)[O-])c(C(F)(F)F)c2)cc1", "°C", -0.03],
  ["CC(C)=C[C@H]1C[C@H](C)[C@]2(CC[C@]3(C)C[C@H]4[C@H](C(=O)C[C@@]4(C)O)/C(C=O)=C\\C[C@H]32)O1", "°C", -1.12],
  ["N#Cc1ccc(N2N=C3c4ccc(C(=O)O)cc4CC[C@@H]3[C@@H]2C2CCCC2)cc1Cl", "°C", 0.42],
  ["O=C1C(P(=O)(O)O)CCCN1O (centres undefined)", "°C", -2.37],
  ["C(=C\\c1ccccc1)/CN1CCN(CCOC(c2ccccc2)c2ccccc2)CC1", "°C", -2.65]
]}

Exercise: Request: ΔTm, test system Aurora kinase A (Homo sapiens) (UniProt O14965), entry "N#Cc1ccc([C@H]2CCCC[C@H]2O)cc1C(F)(F)F"
Solution: -1.09

Exercise: Request: ΔTm, test system Aurora kinase A (Homo sapiens) (UniProt O14965), entry "O=C1Cc2cc(C(=O)N[C@@H]3C[C@H]4CC[C@@H](C3)N4S(=O)(=O)CC3CCN(CCCC(F)(F)F)CC3)c(Cl)cc2N1"
Solution: -0.32

---

Documented ΔTm across a set of compounds
system name: Bromodomain-containing protein 4 (Homo sapiens) (UniProt O60885)
measurement context: Compound concentration 20.0 uM
Non-standard residues stand in square brackets, D forms with d. Residues, ends and D or L forms follow the SMILES beside them. *: point of attachment. Benzoyl(4-OPh) = O=C(c1ccc(Oc2ccccc2)cc1)*; Lys(Et2) = CCN(CC)CCCC[C@H](N)C(=O)O; d(aIle) = CC[C@H](C)[C@@H](N)C(=O)O; Gly(cPent) = N[C@H](C(=O)O)C1CCCC1; NH(propargyl) = C#CCN*
Form entry: value (°C) — number only.

Here is how some compounds turned out for ΔTm.
{"columns": ["compound", "system name", "ΔTm, °C"],
 "data": [
  ["CC(C)n1nc(-c2cc3cc(O)ccc3[nH]2)c2c(N)ncnc21", "Bromodomain-containing protein 4 (Homo sapiens) (UniProt O60885)", 2.33],
  ["CS(=O)(=O)Nc1ccc(-c2coc3cc(OCc4cccc(C(=O)O)c4)ccc3c2=O)cc1", "Bromodomain-containing protein 4 (Homo sapiens) (UniProt O60885)", 0.08],
  ["Cc1ccc(N2C(=O)/C(=C/C=C/c3ccco3)C(=O)NC2=S)cc1Cl", "Bromodomain-containing protein 4 (Homo sapiens) (UniProt O60885)", -2.47],
  ["Nc1cc2c3c(c1)C(c1ccccc1)=N[C@@H](NC(=O)c1cccnc1)C(=O)N3CC2", "Bromodomain-containing protein 4 (Homo sapiens) (UniProt O60885)", -0.29],
  ["C/C(=N\\NC(=O)c1cccc(S(=O)(=O)N2CCOCC2)c1)c1cc(Cl)ccc1O", "Bromodomain-containing protein 4 (Homo sapiens) (UniProt O60885)", -2.01],
  ["CN1[C@@H]2CC[C@H]1C[C@@H](OC(c1ccc(F)cc1)c1ccc(F)cc1)C2", "Bromodomain-containing protein 4 (Homo sapiens) (UniProt O60885)", -2.87]
]}

Attention now turns to another entry.
Exercise: Name the reported ΔTm value associated with the compound C#CCNC(=O)[C@H](CO)NC(=O)[C@H](CCCCN(CC)CC)NC(=O)[C@H](NC(=O)[C@@H](NC(=O)c1ccc(Oc2ccccc2)cc1)C1CCCC1)[C@@H](C)CC ({Benzoyl(4-OPh)}-[Gly(cPent)][d(aIle)][Lys(Et2)]S-{NH(propargyl)})
Solution: -3.19

---

Documented ΔTm across a set of compounds
system name: Glycogen synthase kinase-3 beta (Homo sapiens) (UniProt P49841)
Sequence (P49841 whole entry, looked up): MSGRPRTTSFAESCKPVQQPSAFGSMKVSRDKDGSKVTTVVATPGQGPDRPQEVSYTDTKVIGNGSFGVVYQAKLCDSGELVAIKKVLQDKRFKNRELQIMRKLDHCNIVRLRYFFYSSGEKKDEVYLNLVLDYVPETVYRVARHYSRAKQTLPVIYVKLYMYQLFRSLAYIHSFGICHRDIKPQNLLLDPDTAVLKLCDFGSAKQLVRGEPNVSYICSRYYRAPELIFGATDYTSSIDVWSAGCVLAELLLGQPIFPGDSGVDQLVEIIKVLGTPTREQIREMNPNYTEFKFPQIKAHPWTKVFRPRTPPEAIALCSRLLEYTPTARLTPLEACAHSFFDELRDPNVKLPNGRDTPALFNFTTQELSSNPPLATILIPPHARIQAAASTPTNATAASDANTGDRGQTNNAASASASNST
measurement context: Compound concentration 20.0 uM
Description: Thermal Shift Assay. Domain: start/stop: M26-R383
Form entry: value (°C) — number only.

Exercise: Name the reported ΔTm value associated with the compound "CN1[C@@H]2CC[C@H]1C[C@@H](OC(c1ccc(F)cc1)c1ccc(F)cc1)C2"
Solution: -0.54

Exercise: Name the reported ΔTm value associated with the compound "COc1cc(C)[nH]c(=O)c1CNC(=O)c1c(C)n([C@H](C)C2CCN(CC(F)(F)F)CC2)c2ccccc12"
Solution: -0.64

Exercise: Name the reported ΔTm value associated with the compound "O=C(NCCCCc1ccccc1)n1c(=O)oc2cc(-c3ccc(F)cc3)ccc21"
Solution: 0.3

Exercise: Name the reported ΔTm value associated with the compound "O=C(O)C1=CCCN(CCOC(c2ccc(C(F)(F)F)cc2)c2ccc(C(F)(F)F)cc2)C1"
Solution: -0.54

Exercise: Name the reported ΔTm value associated with the compound "COc1cn(-c2ccc(-n3cccn3)cc2F)nc(-c2ccnn2-c2ccccc2)c1=O"
Solution: 0.96
